Source: the RNAGym collection of RNA variant scans (doi:10.1073/pnas.2313332121)

Overview of recorded polymerase ribozyme fitness (log ratio) for various variants
B1: TPR t1 (parent)
chain: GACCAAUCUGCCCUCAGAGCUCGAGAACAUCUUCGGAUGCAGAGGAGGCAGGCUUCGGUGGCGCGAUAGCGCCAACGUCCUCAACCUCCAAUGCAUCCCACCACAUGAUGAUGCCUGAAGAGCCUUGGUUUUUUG

- Variants of: B1
- methodNotes: polymerase ribozyme fitness, log enrichment relative to wild type (log ratio); higher = more active; in vitro selection for triplet polymerase activity
Write the number on its own, no unit after it.

querySequence: GACCAAUCUGCCCUCAUAGCUCGAGAACAUCUUCGGAUGCAGAGGAGGCAGGCUUCGGUGGCGCGAUAGCGCCAACGUCCUCAACCUCCAAUGCAUCCCACCACCUGAAGAUGCCUGAAGAGCAUUGGUUUUUUG [G17U A105C U109A C124A]
obsValue: -5.37

querySequence: GACCAAUCUGCCCUCAGAGCUCGAGAACAUCUUCAGAUGCAGAGGAGGCAGGCUUCGGUGGCGCGAUAGCGCCAACGUCCUCAACCUCCAAUGGAUCCCACCACAUGAUGAUGCCUGAAGAGGCUUGGCUUUUUG [G35A C94G C123G U129C]
obsValue: -5.78

querySequence: GACCAAUCUGCCCUCAGAGCUCGAGAACAUCUUCGGAUGCAGAGAAGGCAGGCUUCGGUGGCACGAUAGCGCCAACGUCCUCAACCUCCAAUGCGUCCCAGCACAUGAUGAUGCCUGAAGAGCCUUGGUCUUUUG [G45A G63A A95G C101G U130C]
obsValue: -3.14

querySequence: GACCAAUCAGCCCUCAGAGCUCGAGAACAUCAUCGGUUGCAGAGGCGGCAGGCUUAGGUGGCGCGAUAGCGCCAACGUCCUCAACCUCCAAUGCAUCCCACCACAUGAUGGUGCCUGAAGAGCCUUGGUUUUUUG [U9A U32A A37U A46C C56A A111G]
obsValue: -4.29

querySequence: GACCAAUCUGCCCUCAGAGCUCGAGAACAUCUUCGGAUGCAGAGGAGGCAGGCUUCGGUGGCGCGAUAGCGCCAACGUCCUCAACCUCCAAUGCAUCCCCCAACAUGAUGAUGCCUGAAGAGCCUUGGUUUUUUG [A100C C102A]
obsValue: -2.98

Qu. GET /values?readout=polymerase ribozyme fitness (log ratio)&item= GACCAAUCUGCCCUCAGAGCUCGCGAACAUCUUCGGAUGCAGAGGAGGCAGGCUUCGGUGUCGCGAUAGCGCCAACGUCCUCAACCUCCAAUGCAUCCCACCACAUGAUGAUGCCUGAAGAGCCUUGGUUUUUUG [A24C G61U]
Ans. -6.19

Qu. Can you look up the measured polymerase ribozyme fitness (log ratio) of GACCAAUCUGCCCUCAGAGCUCGAGAACAUCUUCGGAUGCAGAGGAGGCAGGCUUCGGUGUCGCGAUAGCGCCAACGUCCUCAACCUCCAAUGCAUCCCACCAUAUGAUGAUGCCAGAAGAGCCUUGGUUUUUUG [G61U C104U U116A] for me?
Ans. -2.46

Qu. GET /values?readout=polymerase ribozyme fitness (log ratio)&item= GACCAAUCUGCCCUCAGAGCUCGAGAACAACUUCGGAUGCAGAGGAGGCAGGCUUCGGUGGCGCGAUAGCGCCAACGUCCUCAACCUCCAAUGCAUCCCACCACAUGAUGAUGCCUGAAGAGCCUUGGGUUUUUG [U30A U129G]
Ans. -4.77

Qu. Fill in: polymerase ribozyme fitness (log ratio) of GACCAAUCUGCCCUCAGAGCUCGAGAACUUCUUCGGAUGCAGAGGAGGCAGGCUUCGGUGGCGCGAUAGCGCCAACCUCCUCAACCUCCAAUGCAUCCCACCACAUGAUGAGGCCUGAAGAGCCUUCGUUUUUUG [A29U G77C U112G G127C] is ___
Ans. -5.41

Qu. Fill in the blank: the reported polymerase ribozyme fitness (log ratio) of GACCAAUCUGCCCUCAGAGCUCGAGAACAUCUUCGGAUGCAGAGGAGGCAGGCUUCGGUGGCGCGAUAGCGCCAACGUCCUCAACCUCCAAUGCAUCCCACCACAUGAUGAUGCCUGAAGAGCCUCGGUUUUUUG [U126C] is ____.
Ans. -0.485

Qu. What value of polymerase ribozyme fitness (log ratio) has been reported for the following variant? GACCAAUCUGCCCUCAGAGCUCGAGAACAUCUUCGGAUGCAGAGGAGGCAGGAUUCGGUGGCGUGAUAGCGCCAACGCCCUCAACCUCCAAUGCAUCCCACCAAAUGAUGAUGCCUGAAGAGCCUUGGUUUUUUG [C53A C64U U78C C104A]
Ans. -0.646

Qu. If you can, please state the reported polymerase ribozyme fitness (log ratio) value of GACCAAUCUGCCCUCAGAGCUCGAGAACAUCUUCGGAUGCAGAGGAGGCAGGCUUCGGUGGCGCGAUAGCGCCAACUUCCUCAACCUCCAAUGCAUCCCACCACAUGAUGAUGCCUGAAGAGCCUUGCUUUUUUG [G77U G128C] .
Ans. -3.09

Qu. Consider the variant shown here: GACCCAUCUGCCCUCAGAGCUCGAGAACAUCUUCGGAUGCAGAGGAGGCAGGCUUCGGUGGUGCGAUAGCGCCAACGUCCUCAAUCUCCAAUGCAUCCCACCACAUGAUGAUGCCUGAAGAGACUUGGUUUUUUG [A5C C62U C85U C123A] What is its recorded polymerase ribozyme fitness (log ratio)?
Ans. -1.09

Qu. What value of measured polymerase ribozyme fitness (log ratio) is listed for GACCAAUCUGCCCUCAGAGCUCGAGAACAUCUUCGGGUGCAGAGGAGGCAGGCUUCGGUGGCGCGAUAGCGCCAACGUCCUCAACCUCCAAUGCCUCCCACCACAUGAUGAUGCCUGAAGAGCCUUGGUUUUUUG [A37G A95C] ?
Ans. -1.66

Qu. May I ask what polymerase ribozyme fitness (log ratio) has been recorded for GACCAAUCUGCCCCCACAGAUCGUGAACAUCUUCGGAUGCAGCGGAGGCAGGCUUCGGUGGCGCGAUAGCGCCAACGUCCUCAAUCUCCAAUGCAUCCCACCACAUGAUGGUGCCUGAAGAGCCUUGGUUUUUUG [U14C G17C C20A A24U A43C C85U A111G] ?
Ans. -6.11

Qu. State the recorded polymerase ribozyme fitness (log ratio) for this entry: GACCAAUCUGCCCUCAGAGCUCGAGAACAUCUUCGGAUGCAGAGGAGGCAGGCUUCGGUGCCGCGAUAGCGCCAACGUCCUCAACCUCCAAUGCAUCUCACCACAUGAUGAUGCCUGAAGAGCCUUGGUUUUUUG [G61C C98U]
Ans. -2.55

Qu. Entry under review: GACCAAUCUGCCCUCAGUGCUCGAGAACAUCUUCGGAUGCAGAGGAGGCAGGCUUCGGUAGCGCGAUAGCGCCAACGUCCUCAACCUCCAAUGCAUCCCACCACAUGAUGAUGCCUGAAGAGCCUUGGUUUUUUG [A18U G60A] . Reported polymerase ribozyme fitness (log ratio)?
Ans. -2.24

Qu. Give the measured polymerase ribozyme fitness (log ratio) of GACCAAUCUGCUCUCGGAGCUCGAGAACAUCUUCGGAUGCAGAGGAGGCAGGCUUCGGUGGCGCGAUAGCGCCAACGUCCUCAACCUCCAAUGCAUCCCACCACAAGAUGAUGCCUGAAGAGCCUUGGUUUUUUG [C12U A16G U106A] .
Ans. 0.278

Qu. // query polymerase ribozyme fitness (log ratio) value for entry GACCAGUCUGCCCUCAGAGCUCGAGAACAUCUUCGGAUGCAGAGGAGUCAGGCAUCGGUGGCGCGAUAGCGCCAACGUCCUCAACCUCCAAUGCAUCCCACCACAUGAUGAUGCCUGAAGAGCCUUAGUUUUUUG [A6G G48U U54A G127A]
Ans. -2.59

Qu. GET /values?readout=polymerase ribozyme fitness (log ratio)&item= GACCAAUCUGCCCUCAGAGCUCGAGAACAUCUUCGGAUGCAGAGGAGGCAGGCUUGGGUGGCGCGAUAGCGCCAACGUCCUCAACCUCCAAUGCAUCCCACCACAUGAUUAUGCCUGAAGAGCCUUGGUUUUUUG [C56G G110U]
Ans. -1.13

Qu. Quick check: polymerase ribozyme fitness (log ratio) of GACCAAUCUGCCCUCAGAGCUCGAGAACAUCUUCGGAUGCAGAGGAGGCAGGCUUCGGUGGCGCGAUAGCGCCAACGUCUUCAACCUCCAAUGCAUCCCACCCCAUGAUGAUGCCUGAAGAGCCUUGGUUUUUUG [C80U A103C] ?
Ans. -6.57
